Catalogue of MIC readings, one per entry.
Tested on: NIH3T3
Assay: Minimum inhibitory concentration for the inhibition of transformation in ras- transformed cells(ras/ NIH3T3)
Type: functional
Conditions: Mus musculus
Report as a plain number; the unit µM is understood.

Some solved entries appear below for comparison.
[
  {
    "compound structure": "CN(c1cccc(/C=C/C=C/C(=O)NO)c1)S(=O)(=O)c1ccccc1",
    "measurement": 0.6
  },
  {
    "compound structure": "O=C(/C=C/C=C/c1cccc(NS(=O)(=O)c2ccccc2)c1)NO",
    "measurement": 0.3
  },
  {
    "compound structure": "O=C(/C=C/C=C/c1cc2ccccc2n1S(=O)(=O)c1ccccc1)NO",
    "measurement": 0.4
  },
  {
    "compound structure": "O=C(/C=C/C#Cc1cccc(NS(=O)(=O)c2ccc(Br)cc2)c1)NO",
    "measurement": 0.16
  }
]

Attention now shifts to the item below.
Req: Quick one: MIC for O=C(/C=C/C=C/c1cc2ccccc2cc1NS(=O)(=O)c1ccccc1)NO ?
Resp: 0.32

Entry source: ChEMBL document CHEMBL1129242
